Molecular target: recombinant HIV-1 NCp7 protein (Human immunodeficiency virus type 1 group M subtype B)
Construct: within the nucleocapsid p7 (NCp7) protein portion of the polyprotein
Assay: Trp37 zinc finger fluorescence (zinc ejection) assay
Format: biochemical
Conditions: Table 3; average decrease in relative fluorescence
Measured Zinc Finger Reactivity RFU/ min, listed per entry for reference.
// return numeric value only (unit: RFU/ min, not printed)

Below, each entry is followed by its recorded Zinc Finger Reactivity RFU/ min result.
compound	Zinc Finger Reactivity RFU/ min, RFU/ min
O=C(Nc1ccc(S(=O)(=O)c2ccc([N+](=O)[O-])cc2)cc1)c1ccccc1SSc1ccccc1C(=O)Nc1ccc(S(=O)(=O)c2ccc([N+](=O)[O-])cc2)cc1 [Compound 31D]	2.9
CC(=O)Nc1ccc(S(=O)(=O)c2ccc(NC(=O)c3ccccc3SSc3ccccc3C(=O)Nc3ccc(S(=O)(=O)c4ccc(NC(C)=O)cc4)cc3)cc2)cc1 [Compound 27D]	5.9

Entry O=c1c2ccccc2sn1-c1ccc(S(=O)(=O)c2ccc([N+](=O)[O-])cc2)cc1 : reported Zinc Finger Reactivity RFU/ min = ?
4.1
